Reference source: patent US20230381229A1

assaySystem: PD-1 expressed on cells (human)
Sequence (chain, as listed by the source): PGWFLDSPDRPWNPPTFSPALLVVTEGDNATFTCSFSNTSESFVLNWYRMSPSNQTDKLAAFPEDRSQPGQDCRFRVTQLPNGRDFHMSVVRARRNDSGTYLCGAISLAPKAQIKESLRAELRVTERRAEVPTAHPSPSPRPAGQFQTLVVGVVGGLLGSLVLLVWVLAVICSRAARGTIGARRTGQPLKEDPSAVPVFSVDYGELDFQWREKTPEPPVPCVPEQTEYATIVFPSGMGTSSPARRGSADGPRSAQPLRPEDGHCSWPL
measurementNotes: flow cytometry, Jurkat/PD-1 cells

- binder: "variant PD-L2 IgV-Fc I13V, E44D, Q82R, V89D (Fc fusion) LFTVTVPKELYIVEHGSNVTLECNFDTGSHVNLGAITASLQKVDNDTSPHRERATLLEEQLPLGKASFHIPQVQVRDEGQYRCIIIYGDAWDYKYLTLKVKA"
  MFI at 50 nM: 45200
- binder: "variant PD-L2 IgV-Fc H15Q, K65R (Fc fusion) LFTVTVPKELYIIEQGSNVTLECNFDTGSHVNLGAITASLQKVENDTSPHRERATLLEEQLPLGRASFHIPQVQVRDEGQYQCIIIYGVAWDYKYLTLKVKA"
  MFI at 50 nM: 13500
- binder: "variant PD-L2 IgV-Fc H15Q, E44D, R76G, I85F (Fc fusion) LFTVTVPKELYIIEQGSNVTLECNFDTGSHVNLGAITASLQKVDNDTSPHRERATLLEEQLPLGKASFHIPQVQVGDEGQYQCIFIYGVAWDYKYLTLKVKA"
  MFI at 50 nM: 2880
- binder: "variant PD-L2 IgV-Fc H15Q, S67L, R76G, I85F (Fc fusion) LFTVTVPKELYIIEQGSNVTLECNFDTGSHVNLGAITASLQKVENDTSPHRERATLLEEQLPLGKALFHIPQVQVGDEGQYQCIFIYGVAWDYKYLTLKVKA"
  MFI at 50 nM: 2870
- binder: "variant PD-L2 IgV-Fc H15Q, T47A (Fc fusion) LFTVTVPKELYIIEQGSNVTLECNFDTGSHVNLGAITASLQKVENDASPHRERATLLEEQLPLGKASFHIPQVQVRDEGQYQCIIIYGVAWDYKYLTLKVKA"
  MFI at 50 nM: 26600
- binder: "variant PD-L2 IgV-Fc E44D (Fc fusion) LFTVTVPKELYIIEHGSNVTLECNFDTGSHVNLGAITASLQKVDNDTSPHRERATLLEEQLPLGKASFHIPQVQVRDEGQYQCIIIYGVAWDYKYLTLKVKA"
  MFI at 50 nM: 2930
- binder: "variant PD-L2 IgV-Fc S67L, I85F (Fc fusion) LFTVTVPKELYIIEHGSNVTLECNFDTGSHVNLGAITASLQKVENDTSPHRERATLLEEQLPLGKALFHIPQVQVRDEGQYQCIFIYGVAWDYKYLTLKVKA"
  MFI at 50 nM: 529
- binder: "variant PD-L2 IgV-Fc H15Q (Fc fusion) LFTVTVPKELYIIEQGSNVTLECNFDTGSHVNLGAITASLQKVENDTSPHRERATLLEEQLPLGKASFHIPQVQVRDEGQYQCIIIYGVAWDYKYLTLKVKA"
  MFI at 50 nM: 16000
- binder: "variant PD-L2 IgV-Fc V89D (Fc fusion) LFTVTVPKELYIIEHGSNVTLECNFDTGSHVNLGAITASLQKVENDTSPHRERATLLEEQLPLGKASFHIPQVQVRDEGQYQCIIIYGDAWDYKYLTLKVKA"
  MFI at 50 nM: 3360
